- system_name: human DGKζ (Homo sapiens (Human))
- Sequence (Q13574 whole entry, looked up): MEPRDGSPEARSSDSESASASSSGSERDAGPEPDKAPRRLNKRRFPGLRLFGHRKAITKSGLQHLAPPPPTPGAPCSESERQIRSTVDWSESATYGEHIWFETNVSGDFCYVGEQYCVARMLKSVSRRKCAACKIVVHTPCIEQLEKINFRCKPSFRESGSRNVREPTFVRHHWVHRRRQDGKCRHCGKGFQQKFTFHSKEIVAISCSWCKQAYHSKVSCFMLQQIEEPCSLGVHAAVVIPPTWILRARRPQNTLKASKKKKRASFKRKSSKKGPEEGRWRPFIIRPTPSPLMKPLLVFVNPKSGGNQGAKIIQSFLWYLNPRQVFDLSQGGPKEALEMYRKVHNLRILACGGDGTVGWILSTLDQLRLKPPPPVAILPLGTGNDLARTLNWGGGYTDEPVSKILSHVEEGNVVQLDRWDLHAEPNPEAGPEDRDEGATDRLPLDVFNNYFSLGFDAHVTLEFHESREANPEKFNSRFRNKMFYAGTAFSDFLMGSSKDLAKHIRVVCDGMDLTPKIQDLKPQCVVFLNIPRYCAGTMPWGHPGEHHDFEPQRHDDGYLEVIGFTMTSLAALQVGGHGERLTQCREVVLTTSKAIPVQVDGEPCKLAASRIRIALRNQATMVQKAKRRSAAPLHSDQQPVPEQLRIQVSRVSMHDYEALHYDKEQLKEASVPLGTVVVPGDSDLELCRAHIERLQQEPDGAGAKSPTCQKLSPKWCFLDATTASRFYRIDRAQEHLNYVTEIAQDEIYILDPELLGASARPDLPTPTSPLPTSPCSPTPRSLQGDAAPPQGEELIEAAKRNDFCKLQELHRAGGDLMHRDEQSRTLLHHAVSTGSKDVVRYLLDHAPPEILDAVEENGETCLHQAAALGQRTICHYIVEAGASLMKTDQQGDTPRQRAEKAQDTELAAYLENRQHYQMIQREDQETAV
- experiment_summary: biochemical
- Type: biochemical
- condition: Table A; liposome (LIPGLO) assay; read-out: DGKζ
pIC50: −log10 of the molar value.
Range-based classes on measured pIC50: bottom bin (below 5), middle bin (5 to below 6), top bin (6 or more)

molecule	system_name	classification
CCO[C@@H]1CN(c2cc(=O)n(C)c3ccc(C#N)nc23)CC[C@H]1Oc1cccc(C(F)(F)F)c1 [Example 264]	human DGKζ (Homo sapiens (Human))	bottom bin
COc1ccc(NC2C[C@H](C)N(c3cc(=O)n(C)c4ccc(C#N)nc34)C[C@H]2C)nc1 (single isomer, unassigned) [Example 281]	human DGKζ (Homo sapiens (Human))	middle bin
CCC(C)(C)c1ccc(O[C@@H]2CCN(c3c(C#N)c(=O)n(C)c4ccc(C#N)nc34)C[C@H]2C)cc1 (single isomer, unassigned) [Example 230]	human DGKζ (Homo sapiens (Human))	bottom bin
CC(C)Oc1ccc(OC2C[C@@H](C)N(c3nc(=O)n(C)c4ccc(C#N)nc34)C[C@H]2C)nc1 (single isomer, unassigned) [Example 245]	human DGKζ (Homo sapiens (Human))	top bin
CC1CN(c2c(C#N)c(=O)n(C)c3ccc(C#N)nc23)CCC1N(C)Cc1ccc(F)cc1 (single isomer, unassigned) [Example 323]	human DGKζ (Homo sapiens (Human))	bottom bin
CO[C@@H]1CN(c2cc(=O)n(C)c3ccc(C#N)nc23)CC[C@H]1Oc1cccc(C(F)(F)F)c1 (single isomer, unassigned) [Example 262]	human DGKζ (Homo sapiens (Human))	bottom bin
COc1ccc(NC2C[C@H](C)N(c3cc(=O)n(C)c4ccc(C#N)nc34)C[C@H]2C)nc1 (single isomer, unassigned) [Example 280]	human DGKζ (Homo sapiens (Human))	bottom bin
CO[C@@H]1CN(c2nc(=O)n(C)c3ccc(C#N)nc23)CC[C@H]1Oc1cccc(C(F)(F)F)c1 (single isomer, unassigned) [Example 277]	human DGKζ (Homo sapiens (Human))	middle bin
CCC(C)(C)c1ccc(O[C@@H]2CCN(c3c(C#N)c(=O)n(C)c4ccc(C#N)nc34)C[C@H]2C)cc1 (racemic) [Example 229]	human DGKζ (Homo sapiens (Human))	bottom bin
CC(C)Oc1ccc(O[C@H]2CCN(c3cc(=O)n(C)c4ccc(C#N)nc34)C[C@@H]2O)nc1 (single isomer, unassigned) [Example 268]	human DGKζ (Homo sapiens (Human))	bottom bin
CC[C@@H]1CN(c2cc(=O)n(C)c3ccc(C#N)nc23)CC[C@@H]1Oc1ccc(OC(C)C)cn1 [Example 204]	human DGKζ (Homo sapiens (Human))	top bin
CCO[C@H]1CN(c2cc(=O)n(C)c3ccc(C#N)nc23)CC[C@H]1Oc1cccc(C(F)(F)F)c1 (single isomer, unassigned) [Example 370]	human DGKζ (Homo sapiens (Human))	middle bin
CC[C@@H]1CN(c2cc(=O)n(C)c3ccc(C#N)nc23)CC[C@H]1Oc1cccc(C(C)(C)C)c1 (single isomer, unassigned) [Example 197]	human DGKζ (Homo sapiens (Human))	top bin
Cn1c(=O)nc(N2CC[C@@H](Oc3cccc(C(F)(F)F)c3)[C@H](O)C2)c2nc(C#N)ccc21 (single isomer, unassigned) [Example 273]	human DGKζ (Homo sapiens (Human))	middle bin
C[C@H]1CN(c2cc(=O)n(C)c3ccc(C#N)nc23)[C@@H](C)CC1N(C)c1ccc(C(F)(F)F)cc1 (single isomer, unassigned) [Example 319]	human DGKζ (Homo sapiens (Human))	bottom bin
C[C@@H]1CN(c2c(C#N)c(=O)n(C)c3ccc(C#N)nc23)CC[C@@H]1Oc1ccc(C(F)(F)F)cc1 [Example 190]	human DGKζ (Homo sapiens (Human))	middle bin
CC[C@@H]1CN(c2cc(=O)n(C)c3ccc(C#N)nc23)CC[C@@H]1Oc1ccc(OC(C)C)cn1 [Example 203]	human DGKζ (Homo sapiens (Human))	top bin
CC1CN(c2c(C#N)c(=O)n(C)c3ccc(C#N)nc23)CCC1N(C)Cc1ccc(F)cc1 (single isomer, unassigned) [Example 325]	human DGKζ (Homo sapiens (Human))	bottom bin
